Data origin: PubChem BioAssay (NCI)

Here the recorded growth is given for each entry.
tested on: MDA-MB-468 breast; assay: NCI-60 one-dose screen, 48 h (100 = growth as untreated, 0 = no growth, -100 = all killed); settings: 10 µM unless noted
About 83,000 compounds went through this panel and 20% of them were active in at least one assay; those are over-represented in the sample as a whole.
observationType: growth (%)

> print(dat)
                                    compound      assayedtarget  observationtype  numericvalue
 1                    COC(=O)CCC(=O)c1ccccc1  MDA-MB-468 breast           growth           115
 2  Cc1ccc(C2=C/C(=C/c3ccc(Br)cc3)C(=O)N2CCc2ccc(S(N)(=O)=O)cc2)cc1  MDA-MB-468 breast           growth          92.7
 3  COc1ccc2oc(-c3ccc(Cl)cc3)c(N3CCN(C)CC3)c2c1  MDA-MB-468 breast           growth         -53.5
 4  COc1ccc(/C=C(/c2ccccc2)[N+](=O)[O-])c(OC)c1  MDA-MB-468 breast           growth         -56.5
 5  CC(C)(C)c1ccc(C(=O)N/N=C/c2ccc(O)cc2O)cc1  MDA-MB-468 breast           growth         -32.5
 6  Cn1cc(-c2nc3c(F)cc4[nH]ncc4c3c3c2CCCC3)c(C(F)(F)F)n1  MDA-MB-468 breast           growth            33
 7  O=CN1N=C(c2ccc(F)cc2)CC1c1cccc(Nc2ccnc3cc(C(F)(F)F)ccc23)c1 (stereo unspecified)  MDA-MB-468 breast           growth          29.2
 8  Cc1nc(N)nc2c1CCC(Nc1ccccc1)S2 (stereo unspecified)  MDA-MB-468 breast           growth           100
 9  O=C1N(c2ccccc2)C(=S)N[C@]12[C@H](c1ccccc1)C1CCCN1[C@]21C(=O)NC2C=CC(Cl)=C[C@H]21 (stereo partly specified)  MDA-MB-468 breast           growth          99.7
10  CCCCCCCCCCCCNC(=S)N/N=C/c1ccc(Cl)c(Cl)c1  MDA-MB-468 breast           growth           104
11  CCOC(=O)c1cnn(CC(O)CC)c1NC(=O)NCc1ccccc1C(F)(F)F (stereo unspecified)  MDA-MB-468 breast           growth           106
